Just for reference, PubChem BioAssay (NCI) is where these values come from.

Test: NCI Yeast Anticancer Drug Screen. Data for the sgs1 mgt1 strain (AID 161);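 note: 0% = growth of cultures given vehicle only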
Conditions: S. cerevisiae sgs1 mgt1 strain, at 50.0 µM, hits give high values
The panel holds about 79,000 compounds, 15% with a hit somewhere; the sample as a whole holds those more often.
# growth inhibition annotations
Field format: number, assumed %, no unit text.

In the examples that follow, each entry is paired with its recorded growth inhibition.
compound | units.of.measure | value.measured
Cc1nn2c(c1C#N)NNc1c-2sc(=N)nnc1=O | % | 13.5
CC(=O)c1ccc(O)c(CN(C2CCCCC2)C2CCCCC2)c1O | % | -36.1
OCC1CCCCCCC1 | % | -3.15
CC(=O)OC1CC(C(C)C)CCC1C (stereo not drawn) | % | 6.3

Now examine the next entry.
Asked: Any idea what its growth inhibition is? The compound is Cc1ccc(N=Nc2ccc(C)cc2NC(=O)c2ccc(Cl)cc2Cl)cc1
Given back: 9.1

###

Test: NCI Yeast Anticancer Drug Screen. Data for the mec2-1 strain (AID 157)
Settings: S. cerevisiae mec2-1 strain, at 50.0 µM, hits give high values
The panel holds about 79,000 compounds, 15% with a hit somewhere; the sample as a whole holds those more often.
readout.name: growth inhibition (%)
Unit % implied. Number only.

Asked: Record request: growth inhibition value, item CSc1nc(NC2OCC(OC(C)=O)C(OC(C)=O)C2OC(C)=O)c(N=C(C)C(C)=O)c(=O)[nH]1 (stereo unspecified)
Given back: 17.7

Asked: Requested field: growth inhibition. Item: O=c1nc(Nc2ccccc2)ccn1C1OC(CO)C(O)C1O (stereo unspecified)
Given back: 0.25

Asked: Please give the measured growth inhibition for this molecule: C1OC[C@@H]([C@H]2COCO2)O1
Given back: -11.4

Asked: For the molecule shown here, COC(=O)CC1NC(=O)[C@]1(C)[C@H](C)O (stereo partly specified) , give the reported growth inhibition.
Given back: -16.2

Asked: Any idea what its growth inhibition is? The molecule is CC(C)CCNc1ncnc2[nH]ncc12
Given back: -31.7

Asked: What measured growth inhibition goes with O=C1C(=Cc2ccco2)C(=O)C2CCCCC12 (stereo unspecified) ?
Given back: -9

###

Assay: NCI Yeast Anticancer Drug Screen. Data for the mlh1 rad18 strain (AID 175)
Details: S. cerevisiae mlh1 rad18 strain growth inhibition; at 50.0 µM; hits give high values
About 79,000 compounds went through this panel and 15% of them were active in at least one assay; those are over-represented in the sample as a whole.
readout.name: growth inhibition (%)
The reply should be a number in %, with the unit left off.

compound | growth inhibition, %
C=C1CC[C@H]2C(C)=CC[C@@H]3[C@H](OC(=O)[C@H]3CN(C)C)[C@@H]12 | 16.2
O=C1CCCc2ccccc21 | 1
CCOC(=O)c1c(NNc2ccccc2)nc2ccccc2c1-c1ccccc1 | -1.7
O=C1CSC(c2ccc(C(F)(F)F)cc2)N1c1nncs1 (stereo not given) | 24.2
C=CCOC(=O)C(C)OC(=O)OCC (stereo not given) | 7.15
CC(SCCNC(N)=O)C(N)=O (stereo not given) | -14.4
COc1ccc(CC(C)=C(C#N)C#N)cc1OC | -17.3
CC/C(=C/c1cccc([N+](=O)[O-])c1)C(=O)O | -0.2

Asked: Requested field: growth inhibition. Item: CN(C)c1ccc2c(c1)Cc1cc(N3C(=O)C=CC3=O)ccc1-2
Given back: 98.5

Asked: Item Cc1[nH]c(=O)[nH]c1C(=O)c1ccc(-n2ccnc2)cc1 has what recorded growth inhibition?
Given back: -9.15

Asked: What does the record list as growth inhibition for COC1OCCCO1 ?
Given back: -12.5

Asked: Reported growth inhibition, compound Cc1ccc(N=CN(C)C)c(Cl)c1 : ____
Given back: -23.1

Asked: Please give the measured growth inhibition for this compound: CC(=O)CC(C)(C)NC(=S)Nc1ccc(C)cc1
Given back: 42.3

Asked: Find the recorded growth inhibition belonging to CC1(O)CC2C(CC1SCCO)C2(C)C (stereo not given) and report it.
Given back: -30.5

Asked: Look at this compound and give its reported growth inhibition. COc1ccc(OC)c(NC(=O)C(=O)NNC(=O)c2sc(NNC(C)=O)nc2C)c1
Given back: 30.8

Asked: Find the recorded growth inhibition belonging to CC(C)CC(C)OC(=O)CC(CC(=O)OC(C)CC(C)C)C(=O)OC(C)CC(C)C (stereo not given) and report it.
Given back: -4.15

Asked: Query: growth inhibition; subject: COc1cc(C2c3cc4c(cc3OC(Nc3ccccc3)C2C)OCO4)cc(OC)c1OC (stereo not given)
Given back: 20.8

###

Let's look at some molecules and their measured growth inhibition.
Assay: NCI Yeast Anticancer Drug Screen. Data for the mec2-1 strain (AID 157)
Conditions: S. cerevisiae mec2-1 strain, at 50.0 µM, hits give high values
The panel holds about 79,000 compounds, 15% with a hit somewhere; the sample as a whole holds those more often.
The response must be a number in % with no trailing unit.

Answered examples (3):
molecule | growth inhibition (%)
O=Cc1ccccc1Cl | 12.9
O=C(O)/C=C/c1cnc[nH]1 | -2.3
O=c1c2c(oc(=Nc3ccccc3)n1-c1ccccc1)CC1(CCCCC1)C2 | 1.75

Asked: # query: growth inhibition of entry COc1ccccc1C1c2cc3c(cc2OC(O)(CO)C1C(=O)O)OCO3 (stereo unspecified) (tested in a mixture with another compound)
Given back: -22.7

Asked: So what's the measured growth inhibition for this one? COc1cc2cc(OC)c3cc4c(cc3c2c(OC)c1OC)OCO4
Given back: 11.1

Asked: Consider the molecule N#Cc1ccc(NN=NCCCCCCl)cc1 and give its measured growth inhibition.
Given back: -3.2

###

Assay: NCI Yeast Anticancer Drug Screen. Data for the sgs1 mgt1 strain (AID 161);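 note: 0% = growth of cultures given vehicle only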
Conditions: S. cerevisiae sgs1 mgt1 strain, at 50.0 µM, hits give high values
Experimental: Growth inhibition of yeast strains with defined genetic alterations is measured as a screen for potential anti-cancer activity. Selected strains with alterations in DNA damage repair or cell cycle control were exposed to compounds and growth inhibition was measured relative to vehicle treated controls. The strain used in this assay is sgs1 mgt1
Compounds without any hit were thinned out: in the full panel of roughly 79,000, 15% have a hit.
Parameter: growth inhibition. Scope: all listed entries.
State the answer as a number, implicitly in %.

Some entries whose results are on file:
molecule | units.of.measure | value.measured
CC(=O)Nc1ccc(S(=O)(=O)N/N=C/c2ccco2)cc1 | % | 5.7
O=C(OCC(Cl)(Cl)Cl)N1[C@@H]2C=C[C@@H](N1C(=O)OCC(Cl)(Cl)Cl)[C@@]13CCCCC21O3 (some centres not stated) | % | 0.45
COC(=O)C(=O)[C@@H](O)[C@H](O)[C@@H](O)CO | % | 25
O=C1C2=C(Nc3ccccc3N2)OC1c1ccccc1Cl (configuration not stated) | % | -22.1
O=c1c2cc3c(cc2[nH]c2ncccc12)OCO3 | % | 2.85
CN(C)C(=O)Sc1ccc([N+](=O)[O-])cc1 | % | -14.6
COc1cccc(/C=C\C(=O)c2ccccc(=O)c2O)c1OC | % | 36.8
CCN(CC)CCOCC1CCCN2CCCCC12 (configuration not stated) | % | -1.75

Asked: Give the measured growth inhibition of COc1ccc(/C=C2\N=C(c3cccc(Cl)c3)OC2=O)cc1OC .
Given back: 18.2

Asked: So what's the measured growth inhibition for this one? O=c1c2ccccc2c(=O)n2n1CC=CC2
Given back: -1.75

Asked: // growth inhibition lookup, key: C=CCNC(=S)NNC(=S)NCC=C
Given back: 10.4

Asked: Requested read-out: growth inhibition. Entry: CN1CC2=C(NC(=S)NC2c2ccccc2)/C(=C/c2ccccc2)C1 (configuration not stated)
Given back: 5.65

###

Test: NCI Yeast Anticancer Drug Screen. Data for the cln2 rad14 strain (AID 165);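 note: 0% = growth equal to vehicle treated cultures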
Settings: S. cerevisiae cln2 rad14 strain, at 50.0 µM, hits give high values
The panel holds about 79,000 compounds, 15% with a hit somewhere; the sample as a whole holds those more often.
readout.name: growth inhibition (%)
Dear colleague, please return just the value in %, with no unit written.

compound | growth inhibition (%)
C=CCNC(=O)CCCCCCC/C=C\CCCCCCCC | -27.6
O=C1c2cccc(S)c2C(=O)c2cccc(S)c21 | 4.7
C=CCn1c(=O)c(C(=O)Nc2nc(C34CC5CC(CC(C5)C3)C4)cs2)c(O)c2ccccc21 | 4.4
O=C(c1ccc(Cl)cc1)c1onc(-c2ccccc2)c1-c1ccccc1 | -43.9
CC1CSC(C)C(=O)N1 (stereo not drawn) | 7.55

Asked: Quick one: growth inhibition of CC(=O)c1ccc(N2C(=O)CC(NC3CCCCC3)C2=O)cc1 (stereo not drawn) ?
Given back: -2.15

Asked: Reported growth inhibition, compound Nc1cnc2c(c1)c(=O)nc1n2CCS1 : ____
Given back: 5.3

Asked: // returns reported growth inhibition for input NC(CCC(=O)NC(CSCNC(=O)Nc1ccc(Cl)cc1)C(=O)NCC(=O)O)C(=O)O (stereo not drawn)
Given back: -13.7

Asked: So what does the record say about growth inhibition for COc1ccc(S(=O)(=O)N/N=C\c2cc(I)cc(I)c2O)cc1 ?
Given back: 14.6

Asked: // lookup growth inhibition for CC1=CC(CO)C2C(=O)NC(=O)C2C1C (stereo not drawn)
Given back: -39.5

Asked: What growth inhibition value was documented for this compound, COc1cc2c(cc1OC)C(=O)/C(=C/c1ccc(N(C)C)cc1)CC2 ?
Given back: -63.7
